- ASSAY EXPLANATION: chemical genetic growth profiling, strain panel (AID 1159580);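 further: tested at 20 µM; growth read once vehicle control cultures reached saturation at 30 °C; 1 = growth at the plate median or of vehicle wells; lower values mean less growth of the strain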
- SETUP CONDITIONS: S. cerevisiae deletion strains, growth OD, locus YLR342W, strain FKS1 (second series)
Hit rate of the full screen: of about 5,500 compounds, about 2,000 (36%) were called active. Roughly 18% stayed inconclusive and do not appear here. No stated cut-off is given here; in the data, active means normalized growth mostly below about 0.91 (no sharp cut-off); inconclusive means no clear call, values can overlap the other calls; inactive means mostly above about 0.92. This is one part of the list.
Bench note: report the call from 1 (active), -1 (inactive)

# count of solved cases: 4
- COMPOUND: "CN1C[C@H](C(=O)N[C@]2(C)O[C@@]3(O)[C@@H]4CCCN4C(=O)[C@H](Cc4ccccc4)N3C2=O)C[C@@H]2c3cccc4[nH]cc(c34)C[C@H]21"
  CLASS: -1
- COMPOUND: "CCCCCCC(C)OC(=O)COc1ccc(Cl)cc1Cl (stereo unspecified)"
  CLASS: -1
- COMPOUND: "CC12CCC3c4ccc(OCc5ccccc5)cc4CCC3C1C[C@@H](O)[C@@H]2O (stereo partly specified)"
  CLASS: 1
- COMPOUND: "COC(=O)c1c(C)cc(OC)cc1O"
  CLASS: -1

Kindly review the next compound as well.
## Task Please share the test call associated with CCCCOc1cc(C(=O)NCCN(CC)CC)c2ccccc2n1 .
## Result -1
